measured-on: ephrin type-A receptor 2 ligand-binding domain (UniProt P29317 23-202)
Sequence (P29317 23-202): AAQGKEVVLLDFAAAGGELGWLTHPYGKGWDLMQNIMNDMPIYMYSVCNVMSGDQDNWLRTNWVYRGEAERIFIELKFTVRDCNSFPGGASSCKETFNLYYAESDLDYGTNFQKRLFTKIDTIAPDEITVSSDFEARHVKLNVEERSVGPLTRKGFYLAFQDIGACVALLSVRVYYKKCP
method-description: DELFIA displacement assay
Ends that are not written are not given here.
Listed here are binders together with their documented IC50.
property-measured: IC50

YSAYPDSVEMMS-NH2 [135B1] : > 100 µM
YDYVAVAGPAEY-NH2 [135A1 (1C1)] : > 500 µM
YSVYPDSVPFRP-NH2 [135D7] : > 200 µM
FTAFPLGFEMMS-NH2 [135B9] : > 100 µM
FTAFPLGFEFRP-NH2 [135B8] : > 100 µM
YSLYPDSVPFRP-NH2 [135D8] : > 200 µM
YSCYPDSVPFRP-NH2 [135D6] : > 100 µM
YSAYPLSVEMMS-NH2 [135B2] : > 200 µM
YSAYPLSVEFRP-NH2 [135A7] : > 100 µM
